Test system: 22RV1
assay.details: IC50 assay by Western blot (APH-treated cells), 22RV1
Format: cell-based
experimental.parameters: 22RV1 cells, lowest dose tested
measure: PALD (Percent Activity at Lowest Dose tested) 22RV1

CC1(C)C[C@](C)(O)CCCCCCOc2c(CN)cccc2NC(=O)c2nc(cnc2N)-c2ccc(cc2)S1(=O)=O (single isomer, unassigned) [Compound C-2] | (92%)
CNCc1cccc2c1OCCCCCCC(C)(O)CC(C)(C)S(=O)(=O)c1ccc(cc1)-c1cnc(N)c(n1)C(=O)N2 (racemic) [Compound A] | (73%)
CNCc1cccc2c1OCCCCCC[C@](C)(O)CC1(CC1)S(=O)(=O)c1ccc(cc1)-c1cnc(N)c(n1)C(=O)N2 (single isomer, unassigned) [Compound B-1] | (98%)

* * *

System: HCT116 Bcl/xl
assay.details: IC50 assay by Western blot (APH-treated cells), HCT116 Bcl/xl
Type: cell-based
experimental.parameters: Homo sapiens, HCT-116
I'd appreciate it if you could supply pIC50 values for the items below.
Numbers only, as −log10 of the molar value.

Study these solved cases before continuing.
CNCc1cccc2c1OCCCCCC[C@](C)(O)CC1(CC1)S(=O)(=O)c1ccc(cc1)-c1cnc(N)c(n1)C(=O)N2 (single isomer, unassigned) | 8.34
CNCc1ccc(-c2cc(-c3nc(-c4ccc(S(=O)(=O)C(C)C)cc4)cnc3N)on2)cc1 [VE822, reference compound] | 7.21
CN(C)Cc1cccc2c1OCCCCCCC(C)(O)CC(C)(C)S(=O)(=O)c1ccc(cc1)-c1cnc(N)c(n1)C(=O)N2 (stereo not drawn) | 8.19

State the recorded pIC50 for every item in the following list.
1. CC1(C)C[C@](C)(O)CCCCCCOc2c(CN)cccc2NC(=O)c2nc(cnc2N)-c2ccc(cc2)S1(=O)=O (single isomer, unassigned)
2. CNCc1cccc2c1OCCCCCCC(C)(O)CC(C)(C)S(=O)(=O)c1ccc(cc1)-c1cnc(N)c(n1)C(=O)N2 (racemic)
3. CNCc1cccc2c1OCCCCCC[C@@](C)(O)CC1(CC1)S(=O)(=O)c1ccc(cc1)-c1cnc(N)c(n1)C(=O)N2 (single isomer, unassigned)

Result:
1: 8.27; 2: 8.46; 3: 8.52

* * *

I'd appreciate it if you could supply IC50 values for the items below.
Tested on: OVCAR-3
assay.details: IC50 assay by Western blot (APH-treated cells), OVCAR-3
Assay type: cell-based
experimental.parameters: Homo sapiens; OVCAR-3 cells
Give bare numbers, in nM.

Study these solved cases before continuing.
CNCc1cccc2c1OCCCCCCC(C)(O)CC1(CC1)S(=O)(=O)c1ccc(cc1)-c1cnc(N)c(n1)C(=O)N2 (racemic) | 2.15
CC1(C)C[C@@](C)(O)CCCCCCOc2c(CN)cccc2NC(=O)c2nc(cnc2N)-c2ccc(cc2)S1(=O)=O (single isomer, unassigned) | 1.02
CC1(C)C[C@](C)(O)CCCCCCOc2c(CN)cccc2NC(=O)c2nc(cnc2N)-c2ccc(cc2)S1(=O)=O (single isomer, unassigned) | 11.5
CN(C)Cc1cccc2c1OCCCCCCC(O)CC(C)(C)S(=O)(=O)c1ccc(cc1)-c1cnc(N)c(n1)C(=O)N2 (stereo not shown) | 4.97
CC1(O)CCCCCCOc2c(CN)cccc2NC(=O)c2nc(cnc2N)-c2ccc(cc2)S(=O)(=O)C(C)(C)C1 (racemic) | 3.85

State the recorded IC50 for every item in the following list.
1. CNCc1ccc(-c2cc(-c3nc(-c4ccc(S(=O)(=O)C(C)C)cc4)cnc3N)on2)cc1 [VE822, reference compound]
2. C[C@@H]1COCCN1c1cc(C2([S@](C)(=N)=O)CC2)nc(-c2cc[nH]c3nccc2-3)n1 [AZD 6738, reference compound]
3. CN(C)Cc1cccc2c1OCCCCCCC(C)(O)CC1(CC1)S(=O)(=O)c1ccc(cc1)-c1cnc(N)c(n1)C(=O)N2 (stereo not shown)
4. CNCc1cccc2c1OCCCCCC[C@@](C)(O)CC(C)(C)S(=O)(=O)c1ccc(cc1)-c1cnc(N)c(n1)C(=O)N2 (single isomer, unassigned)
5. CNCc1cccc2c1OCCCCCC[C@@](C)(O)CC1(CC1)S(=O)(=O)c1ccc(cc1)-c1cnc(N)c(n1)C(=O)N2 (single isomer, unassigned)

Result:
[11.5, 91.8, 8.23, 0.753, 3.12]

* * *

System: 22RV1
assay.details: IC50 assay by Western blot (APH-treated cells), 22RV1
Format: cell-based
experimental.parameters: 22RV1 cells, lowest dose tested
Procedure: E. Treatment of Cells for IC50 Assay by Western Blot The compound is stored as a 1 mM stock solution prepared in accordance with the Receipt of Compound SOP. The stock solution is diluted in cell media in two separate 1:10 dilution series. 1. Arrange twelve 15-mL centrifuge tubes in a rack in two series and label them in accordance with Dilutions Series 1 and Dilution Series 2 shown in Table 1 and Table 2, respectively. 2. […]
measure: PALD (Percent Activity at Lowest Dose tested) 22RV1

CN(C)Cc1cccc2c1OCCCCCCC(C)(O)CC1(CC1)S(=O)(=O)c1ccc(cc1)-c1cnc(N)c(n1)C(=O)N2 (centres unmarked) | (96%)
CC1(C)C[C@@H](O)CCCCCCOc2c(CN)cccc2NC(=O)c2nc(cnc2N)-c2ccc(cc2)S1(=O)=O (single isomer, unassigned) | (71%)
CN(C)Cc1cccc2c1OCCCCCCC(C)(O)CC(C)(C)S(=O)(=O)c1ccc(cc1)-c1cnc(N)c(n1)C(=O)N2 (centres unmarked) | (72%)

* * *

Tested on: OVCAR-3
assay.details: IC50 assay by Western blot (APH-treated cells), OVCAR-3
Format: cell-based
experimental.parameters: Homo sapiens; OVCAR-3 cells
measure: pIC50
Numbers only, as −log10 of the molar value.

CNCc1cccc2c1OCCCCCC[C@](C)(O)CC(C)(C)S(=O)(=O)c1ccc(cc1)-c1cnc(N)c(n1)C(=O)N2 (single isomer, unassigned) | 8.39
CNCc1cccc2c1OCCCCCCC(C)(O)CC(C)(C)S(=O)(=O)c1ccc(cc1)-c1cnc(N)c(n1)C(=O)N2 (racemic) | 8.66

Q: Can you share its pIC50? I mean this molecule: CNCc1cccc2c1OCCCCCC[C@](C)(O)CC1(CC1)S(=O)(=O)c1ccc(cc1)-c1cnc(N)c(n1)C(=O)N2 (single isomer, unassigned)
Result: 8.13
